- Measured Target: T1, GIP receptor (human (printed as hGIPR), UniProt P48546 22-466)
- T1 sequence (looked up): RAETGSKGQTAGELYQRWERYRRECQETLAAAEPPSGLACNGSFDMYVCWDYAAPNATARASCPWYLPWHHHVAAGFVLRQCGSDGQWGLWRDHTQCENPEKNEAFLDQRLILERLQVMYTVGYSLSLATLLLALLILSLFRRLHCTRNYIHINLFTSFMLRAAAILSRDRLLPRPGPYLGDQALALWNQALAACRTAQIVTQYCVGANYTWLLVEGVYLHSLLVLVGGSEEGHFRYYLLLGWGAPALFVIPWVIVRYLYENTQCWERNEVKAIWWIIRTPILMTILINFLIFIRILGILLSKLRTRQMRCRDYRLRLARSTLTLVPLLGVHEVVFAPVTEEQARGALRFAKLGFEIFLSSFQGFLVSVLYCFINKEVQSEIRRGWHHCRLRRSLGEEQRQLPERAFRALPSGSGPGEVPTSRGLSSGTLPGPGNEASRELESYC
- Test Details: cell-based or functional assay
Starred links: 1 amine or outer side, 2 acyl side, 3 side chain; linkers in the order of their positions; H or OH if unused. Non-standard residues stand in square brackets, D forms with d. Groups on a side chain read outwards from the residue. No end group written: not given here. *: point of attachment. C20 diacid = O=C(O)CCCCCCCCCCCCCCCCCCC(=O)*; C18 diacid = O=C(O)CCCCCCCCCCCCCCCCC(=O)*; γGlu = O=C(O)[C@H](CCC(=O)[*:2])N[*:1]; εLys = N[C@@H](CCCCN[*:1])C(=O)[*:2]; AEEA = NCCOCCOCC(=O)O; Aib = CC(C)(N)C(=O)O
Property Name: EC50 hGIPR 100% hP (CreLuc) (nM)
The reply should contain only the number, in nM.

# query: EC50 hGIPR 100% hP (CreLuc) of entry Y[Aib]EGTFTSDYSI[Aib]LEKQAE[Aib]AFVEWLIK([AEEA-AEEA-γGlu-γGlu-γGlu-γGlu-C18 diacid])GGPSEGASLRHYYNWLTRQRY-NH2 (also: TFA salt) [Compound 251]
0.98

# query: EC50 hGIPR 100% hP (CreLuc) of entry Y[Aib]EGTFTSDYSI[Aib]LEKQAQ[Aib]AFVQWLIK([AEEA-AEEA-Glu-Glu-Glu-Glu-C20 diacid])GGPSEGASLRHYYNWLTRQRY-NH2 (also: TFA salt) [Compound 239]
1.55

# query: EC50 hGIPR 100% hP (CreLuc) of entry Y[Aib]EGTFTSDYSI[Aib]LEKQAQ[Aib]AFVEWLIK([εLys-γGlu-γGlu-γGlu-γGlu-γGlu-C20 diacid])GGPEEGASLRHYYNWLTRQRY-NH2 (also: TFA salt) [Compound 230]
1.43

# query: EC50 hGIPR 100% hP (CreLuc) of entry Y[Aib]EGTFTSDYSI[Aib]LEEQAQ[Aib]AFVEWLIK([εLys-γGlu-γGlu-γGlu-γGlu-γGlu-C20 diacid])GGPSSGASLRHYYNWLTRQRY-NH2 (also: TFA salt) [Compound 181]
1.23

# query: EC50 hGIPR 100% hP (CreLuc) of entry Y[Aib]EGTFTSDYSI[Aib]LEKQAQ[Aib]AFVEWLIK([AEEA-AEEA-γGlu-γGlu-γGlu-γGlu-C20 diacid])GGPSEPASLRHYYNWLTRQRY-NH2 (also: TFA salt) [Compound 226]
2.6

# query: EC50 hGIPR 100% hP (CreLuc) of entry YXEGTFTSDYSIXLEKQAQXAFVEWLIKGGPSTGASLRHYYNWLTRQRY (Aib at 2, 13, 20; K28 side chain carries C20DA-gGlu-gGlu-gGlu-gGlu-gGlu-gGlu-eLys; C-terminal amide) [Compound 244]
2.32

# query: EC50 hGIPR 100% hP (CreLuc) of entry YXEGTFTSDYSIXLEKQAQDAFVEWLIKGGPSSGASLRHYYNWLTRQRY (Aib at 2, 13; D-Asp at 20; K28 side chain carries C20DA-gGlu-gGlu-gGlu-gGlu-gGlu-gGlu-eLys; C-terminal amide) [Compound 211]
9.79

# query: EC50 hGIPR 100% hP (CreLuc) of entry YXEGTFTSDYSIXLEKQAQXAFVEWLIKGGPSSGASLRHYYNWLTRQRY (Aib at 2, 13, 20; K28 side chain carries C18DA-gGlu-gGlu-gGlu-gGlu-gGlu; C-terminal amide) [Compound 253]
0.64

# query: EC50 hGIPR 100% hP (CreLuc) of entry YXEGTFTSDYSIXLEKQAQXAFVEWLIKGGPSSGASLRHYYNWRTRQRY (Aib at 2, 13, 20; D-Arg at 44; K28 side chain carries C20DA-gGlu-gGlu-gGlu-gGlu-Glu-gGlu-eLys (so in the source); C-terminal amide) [Compound 190]
1.18

# query: EC50 hGIPR 100% hP (CreLuc) of entry Y[Aib]EGTFTSDYSI[Aib]LEKQAQ[Aib]AFVQWLIK([γGlu-γGlu-γGlu-γGlu-γGlu-γGlu-C20 diacid])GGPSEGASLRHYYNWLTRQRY-NH2 (also: TFA salt) [Compound 223]
3.16

# query: EC50 hGIPR 100% hP (CreLuc) of entry Y[Aib]EGTFTSDYSI[Aib]LEKQAQ[Aib]AFVEWLIKGGPSYYASLRHYYNWLTRQRY-NH2 (not fully specified (residue 28); also: TFA salt) [Compound 203]
12.4

# query: EC50 hGIPR 100% hP (CreLuc) of entry YXEGTFTSDYSIXLEKQAQXAFVQWLIKGGPSEGASLRHYYNWLTRQRY (Aib at 2, 13, 20; K28 side chain carries C18DA-gGlu-gGlu-gGlu-gGlu-gGlu-OEG-OEG; C-terminal amide) [Compound 246]
0.95

# query: EC50 hGIPR 100% hP (CreLuc) of entry Y[Aib]EGTFTSDYSI[Aib]LEKQAQ[Aib]EFVQWLIK([γGlu-γGlu-γGlu-γGlu-C20 diacid])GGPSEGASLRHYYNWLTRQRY-NH2 (also: TFA salt) [Compound 194]
1.83

# query: EC50 hGIPR 100% hP (CreLuc) of entry YXEGTFTSDYSIXLELQAQXAFVEWLIKGGPSSGASLRHYYNWLTRQRY (Aib at 2, 13, 20; K28 side chain carries C20DA-gGlu-gGlu-gGlu-gGlu-gGlu-gGlu-eLys; C-terminal amide) [Compound 209]
8.57

# query: EC50 hGIPR 100% hP (CreLuc) of entry Y[Aib]EGTFTSDYSI[Aib]LEKQAQ[Aib]AFVQWLIKGGPSEGASLRHYYNWLTRQRY-NH2 (not fully specified (residue 28); also: TFA salt) [Compound 245]
1.74

# query: EC50 hGIPR 100% hP (CreLuc) of entry YXEGTFTSDYSIXLEKQAQXAFVEWLIKGGPSSPASLRHYYNWLTRQRY (Aib at 2, 13, 20; K28 side chain carries C18DA-gGlu-gGlu-gGlu-gGlu-gGlu; C-terminal amide) [Compound 180]
3.88

# query: EC50 hGIPR 100% hP (CreLuc) of entry Y[Aib]EGTFTSDYSI[Aib]LEKQAQ[Aib]AFIEWLIK([AEEA-AEEA-γGlu-γGlu-γGlu-γGlu-C20 diacid])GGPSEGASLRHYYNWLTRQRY-NH2 (also: TFA salt) [Compound 231]
1.43

# query: EC50 hGIPR 100% hP (CreLuc) of entry YXEGTFTSDYSIXLEKQAQXAFVEWLIKGGPSSGASLRHYYXWLTRQRY (Aib at 2, 13, 20, 42; K28 side chain carries C20DA-gGlu-gGlu-gGlu-gGlu-gGlu-gGlu-eLys; C-terminal amide) [Compound 213]
1.53
